What pIC50 was measured for each of the following?
# Test target: Human immunodeficiency virus type 1 reverse transcriptase (Human immunodeficiency virus 1, UniProt Q72547)
# Test details: Concentration required for 50% inhibition of human immunodeficiency virus type 1 reverse transcriptase mutant type Cys181
When answering, recall that pIC50 equals minus log10 of the concentration in mol/L, and write that number alone.

Query string: // returns reported pIC50 for input CC(C)c1c(OC2CCCCC2)c2cc(Cl)ccc2[nH]c1=O
Result string: 5.60

Query string: Would you kindly repeat that for CCCc1c(SC2CCCCC2)c2cc(Cl)ccc2[nH]c1=O ?
Result string: 6.07

Query string: Would you kindly repeat that for CCCc1c([S+]([O-])C2CCCCC2)c2cc(Cl)ccc2[nH]c1=O (centres undefined) ?
Result string: 5.90

Query string: Would you kindly repeat that for CCCc1c(OC2CCCCC2)c2cc(Cl)ccc2[nH]c1=O ?
Result string: 5.95

* * *

# Test target: Human immunodeficiency virus type 1 reverse transcriptase (Human immunodeficiency virus 1, UniProt Q72547)
# Test details: Concentration required for 50% inhibition of human immunodeficiency virus type 1 reverse transcriptase mutant type Ile100
What IC50 was measured for each of the following?
The reply should contain only the number, in nM.

Query string: // returns reported IC50 for input CCCc1c(OC2CCCCC2)c2cc(Cl)ccc2[nH]c1=O
Result string: 1360

Query string: Would you kindly repeat that for CC(C)c1c(OC2CCCCC2)c2cc(Cl)ccc2[nH]c1=O ?
Result string: 1960

Provenance of the data: ChEMBL document CHEMBL1137821
